- ASSAY SYSTEM: N-terminal GST tagged full length human TTK kinase (Homo sapiens)
- Construct: N-terminal GST tagged full length human TTK kinase; GST (N); made in house; host or cells: insect cells
- ASSAY SUMMARY: In Vitro TTK Kinase Assay 2 (Caliper LabChip LC3000)
- Assay type: biochemical
- TEST CONDITIONS: recombinant TTK, 12 μM ATP, read-out: EAA2: Enzyme Assay Activity (In Vitro TTK kinase assay 2)
pIC50: −log10 of the molar value.
ASSAY ENDPOINT: pIC50

Answered examples (2):
{"SUBSTANCE SMILES": "Cn1c(=O)n(C2CCCC2)c2nc(Nc3ccc(N4CCOCC4)cc3)ncc21", "ASSAY SYSTEM": "N-terminal GST tagged full length human TTK kinase (Homo sapiens)", "pIC50": 6.85}
{"SUBSTANCE SMILES": "COc1cc(NC2CCN(C)CC2)ccc1Nc1ncc2c(n1)n(C1CCCC1)c(=O)n2C", "ASSAY SYSTEM": "N-terminal GST tagged full length human TTK kinase (Homo sapiens)", "pIC50": 6.93}

P = COc1cc(C(=O)NC2CCN(C)CC2)ccc1Nc1ncc2c(n1)n(C1CCCC1)c(=O)n2C
Q = Cn1c(=O)n(C2CCCC2)c2nc(Nc3ccc(N4CCCCC4)cc3)ncc21
R = CN1CCC(NC(=O)c2ccc(Nc3ncc4c(n3)n(C3CCCC3)c(=O)n4C)cc2F)CC1
Input line: Rank order required: pIC50, descending. Reply format: the labels, ordered as requested.
Output line: P, Q, R
(P: 7.19, Q: 6.96, R: 6.20)

* * *

- ASSAY SYSTEM: N-terminal GST tagged full length human TTK kinase (Homo sapiens, UniProt P33981)
- Construct: N-terminal GST tagged full length human TTK kinase; GST (N); made in house; host or cells: insect cells
- Sequence (P33981 whole entry): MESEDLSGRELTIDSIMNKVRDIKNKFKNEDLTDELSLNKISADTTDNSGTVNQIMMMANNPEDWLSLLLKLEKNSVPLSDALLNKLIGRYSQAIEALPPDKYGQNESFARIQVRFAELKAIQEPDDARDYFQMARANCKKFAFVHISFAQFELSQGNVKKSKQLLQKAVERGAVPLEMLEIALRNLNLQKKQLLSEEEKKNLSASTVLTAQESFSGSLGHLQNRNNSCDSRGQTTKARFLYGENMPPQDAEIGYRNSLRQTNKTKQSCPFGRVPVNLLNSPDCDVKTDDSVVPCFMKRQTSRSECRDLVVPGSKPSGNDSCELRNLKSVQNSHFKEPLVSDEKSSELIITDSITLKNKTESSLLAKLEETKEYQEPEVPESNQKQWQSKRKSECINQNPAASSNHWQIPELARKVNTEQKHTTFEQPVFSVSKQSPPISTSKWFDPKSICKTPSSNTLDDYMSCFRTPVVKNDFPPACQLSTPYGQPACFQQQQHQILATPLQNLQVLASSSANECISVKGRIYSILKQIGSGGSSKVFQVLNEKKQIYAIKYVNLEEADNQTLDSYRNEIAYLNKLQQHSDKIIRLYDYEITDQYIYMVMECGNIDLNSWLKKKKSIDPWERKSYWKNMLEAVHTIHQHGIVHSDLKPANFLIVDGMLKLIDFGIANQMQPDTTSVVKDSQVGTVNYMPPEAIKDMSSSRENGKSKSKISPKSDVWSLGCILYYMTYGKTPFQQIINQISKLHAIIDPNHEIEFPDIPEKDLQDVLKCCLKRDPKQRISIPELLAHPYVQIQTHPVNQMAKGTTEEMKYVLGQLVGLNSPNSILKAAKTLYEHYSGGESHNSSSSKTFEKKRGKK
- ASSAY SUMMARY: In Vitro TTK Kinase Assay 2 (Caliper LabChip LC3000)
- Assay type: biochemical
- TEST CONDITIONS: recombinant TTK, 12 μM ATP, read-out: EAA2: Enzyme Assay Activity (In Vitro TTK kinase assay 2)
pIC50: −log10 of the molar value.
ASSAY ENDPOINT: pIC50

A = Cn1c(=O)n(C2CCCC2)c2nc(Nc3ccc(N4CCOCC4)c(Cl)c3)ncc21
B = CCn1c(=O)n(C2CCCC2)c2nc(Nc3ccc(OC4CCN(C)CC4)cc3OC)ncc21
C = COCCN1CCC(NC(=O)c2ccc(Nc3ncc4c(n3)n(C3CCCC3)c(=O)n4C)c(OC)c2)CC1
Input line: // sort listed items: pIC50 descending Reply format: the labels, ordered as requested.
Output line: B, A, C
(B: 7.97, A: 7.57, C: 7.13)

* * *

- ASSAY SYSTEM: N-terminal GST tagged full length human TTK kinase (Homo sapiens, UniProt P33981)
- Construct: N-terminal GST tagged full length human TTK kinase; GST (N); made in house; host or cells: insect cells
- ASSAY SUMMARY: In Vitro TTK Kinase Assay 2 (Caliper LabChip LC3000)
- Format: biochemical
- TEST CONDITIONS: recombinant TTK, 12 μM ATP, read-out: EAA2: Enzyme Assay Activity (In Vitro TTK kinase assay 2)
ASSAY ENDPOINT: IC50 (nM)

{"SUBSTANCE SMILES": "Cn1c(=O)n(C2CCCC2)c2nc(Nc3ccc(CCO)cc3)ncc21", "IC50, nM": 106}

I = COc1cc(C(=O)NCCCCN2CCCC2)ccc1Nc1ncc2c(n1)n(C1CCCC1)c(=O)n2C
II = COc1cc(C(=O)N[C@@H]2CCNC2)ccc1Nc1ncc2c(n1)n(C1CCCC1)c(=O)n2C
Input line: Record comparison, field IC50: mark the lower of I and II . Response format: the label of the selected entry.
Output line: II
(II: 65.3 nM, I: 132 nM)
